# Protocol text: Volume of distribution at steady state in rat at 2 mg/kg, iv or 5 mg/kg, po
# Format: ADME, organism-based
# Condition description: in vivo, read-out: Vdss
Measured metric: Vd (L/kg)
Answers are plain numbers, in L/kg.

Endpoint output: Vd of CC(C)(C)CNCCS(=O)(=O)NC(=O)c1ccc(Nc2nc(NC3(c4ccc(Cl)cc4)CC3)nc(OCC(F)(F)F)n2)cc1 . Value? 0.6

====

# Protocol text: Clearance in rat at 2 mg/kg, iv
# Assay type: ADME, organism-based
# Condition description: in vivo
Measured metric: clearance (mL/min/kg)
Numbers only, in mL/min/kg.

Endpoint output: clearance of CC(C)(C)CNCCS(=O)(=O)NC(=O)c1ccc(Nc2nc(NC3(c4ccc(Cl)cc4)CC3)nc(OCC(F)(F)F)n2)cc1 . Value? 22.5

====

For each entry below, report its remaining at 10 min value.
# Protocol text: Metabolic stability in rat liver microsomes assessed as parent compound remaining after 10 mins
# Assay type: ADME, microsome
# Condition description: liver microsomes, read-out: Stability
Answers are plain numbers, in %.

[
  {
    "Entry smiles": "CC(C)S(=O)(=O)NC(=O)c1ccc(Nc2nc(NC3(c4ccc(Cl)cc4)CC3)nc(OCC(F)(F)F)n2)cc1",
    "remaining at 10 min (%)": 96
  },
  {
    "Entry smiles": "CC(C)NC(=O)NCCS(=O)(=O)NC(=O)c1ccc(Nc2nc(NC3(c4ccc(Cl)cc4)CC3)nc(OCC(F)(F)F)n2)cc1",
    "remaining at 10 min (%)": 97
  },
  {
    "Entry smiles": "CCS(=O)(=O)NC(=O)c1ccc(Nc2nc(NC3(c4ccc(Cl)cc4)CC3)nc(OCC(F)(F)F)n2)cc1",
    "remaining at 10 min (%)": 85
  }
]

Look up remaining at 10 min for the entries below, preserving their order.
1. CS(=O)(=O)NC(=O)c1ccc(Nc2nc(NC3(c4ccc(Cl)cc4)CC3)nc(OCC(F)(F)F)n2)cc1
2. O=C(NS(=O)(=O)CCN1CCOCC1)c1ccc(Nc2nc(NC3(c4ccc(Cl)cc4)CC3)nc(OCC(F)(F)F)n2)cc1
3. CC(C)(C)NC(=O)NCCS(=O)(=O)NC(=O)c1ccc(Nc2nc(NC3(c4ccc(Cl)cc4)CC3)nc(OCC(F)(F)F)n2)cc1

1: 85; 2: 97; 3: 93

====

For each entry below, report its remaining at 10 min value.
# Protocol text: Metabolic stability in rat liver microsomes assessed as parent compound remaining after 10 mins
# Format: ADME, microsome
# Condition description: liver microsomes, read-out: Stability
Numbers only, in %.

[
  {
    "Entry smiles": "O=C(NS(=O)(=O)c1ccccc1)c1ccc(Nc2nc(NC3(c4ccc(Cl)cc4)CC3)nc(OCC(F)(F)F)n2)cc1",
    "remaining at 10 min (%)": 100
  }
]

Look up remaining at 10 min for the entries below, preserving their order.
1. NCCS(=O)(=O)NC(=O)c1ccc(Nc2nc(NC3(c4ccc(Cl)cc4)CC3)nc(OCC(F)(F)F)n2)cc1
2. O=C(NS(=O)(=O)CCN1CCCC1)c1ccc(Nc2nc(NC3(c4ccc(Cl)cc4)CC3)nc(OCC(F)(F)F)n2)cc1
3. CC(C)OC(=O)NCCS(=O)(=O)NC(=O)c1ccc(Nc2nc(NC3(c4ccc(Cl)cc4)CC3)nc(OCC(F)(F)F)n2)cc1
4. O=C(NS(=O)(=O)C1CC1)c1ccc(Nc2nc(NC3(c4ccc(Cl)cc4)CC3)nc(OCC(F)(F)F)n2)cc1
5. CC(=O)NCCS(=O)(=O)NC(=O)c1ccc(Nc2nc(NC3(c4ccc(Cl)cc4)CC3)nc(OCC(F)(F)F)n2)cc1
6. CCCCCNc1nc(Nc2ccc([N+](=O)[O-])cc2)nc(OCC(F)(F)F)n1
7. CC(C)NCCS(=O)(=O)NC(=O)c1ccc(Nc2nc(NC3(c4ccc(Cl)cc4)CC3)nc(OCC(F)(F)F)n2)cc1

100
98
73
85
100
35
100
